ASSAY_DETAILS: xn = mol fraction of the nth substance listed
CONDITION: 298 K; 100 kPa; x1 = 0.05
MEASURED_QUANTITY: viscosity (mPa·s)

> print(dat)
                                   compound  unit.of.measurement  experimental.result
1  CCCC[n+]1ccn(C)c1.O=S(=O)([N-]S(=O)(=O)C(F)(F)F)C(F)(F)F + CCCCO                mPa·s                 3.52
2  CCCC[n+]1ccn(C)c1.O=S(=O)([N-]S(=O)(=O)C(F)(F)F)C(F)(F)F + CCO                mPa·s                1.663
3  CCCC[n+]1ccn(C)c1.O=S(=O)([N-]S(=O)(=O)C(F)(F)F)C(F)(F)F + CCCO                mPa·s                2.742
4  CCCC[n+]1ccn(C)c1.O=S(=O)([N-]S(=O)(=O)C(F)(F)F)C(F)(F)F + CO                mPa·s                1.017
